All figures here come from patent US20260116991A1.

# studySystem: monkey GPC3-His protein (monkey)
# assayComment: ELISA, monkey GPC3-His coated; antibody 0.02 nM
metricName: OD450 nm
Answers are plain numbers.

Example entries begin here.
[
  {
    "binder": "hAb003LH3L1a (antibody, human IgG1, V domains shown) VH: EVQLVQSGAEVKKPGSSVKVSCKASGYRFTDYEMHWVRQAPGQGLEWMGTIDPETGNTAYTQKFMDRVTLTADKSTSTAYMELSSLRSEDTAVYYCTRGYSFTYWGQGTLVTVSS VL: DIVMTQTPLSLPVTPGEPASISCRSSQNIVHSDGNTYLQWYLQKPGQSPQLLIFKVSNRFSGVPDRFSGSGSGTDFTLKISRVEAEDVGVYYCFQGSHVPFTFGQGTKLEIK",
    "experimentalResult": 0.633
  },
  {
    "binder": "hAb007LH3L1 (antibody, human IgG1, V domains shown) VH: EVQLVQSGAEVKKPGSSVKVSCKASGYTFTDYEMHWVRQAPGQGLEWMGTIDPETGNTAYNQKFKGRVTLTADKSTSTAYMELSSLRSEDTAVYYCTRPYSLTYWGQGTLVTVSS VL: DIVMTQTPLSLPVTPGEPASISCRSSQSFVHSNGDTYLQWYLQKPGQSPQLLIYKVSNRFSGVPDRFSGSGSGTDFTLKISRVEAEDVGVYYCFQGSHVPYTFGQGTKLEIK",
    "experimentalResult": 0.368
  },
  {
    "binder": "hAb003LH2L1 (antibody, human IgG1, V domains shown) VH: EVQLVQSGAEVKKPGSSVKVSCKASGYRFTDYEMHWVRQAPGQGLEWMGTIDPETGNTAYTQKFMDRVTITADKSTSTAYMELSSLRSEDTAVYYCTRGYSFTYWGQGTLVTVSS VL: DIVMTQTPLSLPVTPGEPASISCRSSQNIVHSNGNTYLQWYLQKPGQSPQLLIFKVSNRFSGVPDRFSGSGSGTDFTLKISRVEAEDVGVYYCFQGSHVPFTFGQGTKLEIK",
    "experimentalResult": 1.22
  },
  {
    "binder": "hAb007LH2L1a (antibody, human IgG1, V domains shown) VH: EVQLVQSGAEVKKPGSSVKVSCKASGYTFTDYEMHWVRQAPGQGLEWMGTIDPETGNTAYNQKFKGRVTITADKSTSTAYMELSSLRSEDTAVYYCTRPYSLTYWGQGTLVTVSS VL: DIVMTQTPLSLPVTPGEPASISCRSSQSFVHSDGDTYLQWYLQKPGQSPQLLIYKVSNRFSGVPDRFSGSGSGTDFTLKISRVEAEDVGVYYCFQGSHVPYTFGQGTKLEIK",
    "experimentalResult": 0.182
  }
]

Now take the following binder into account.
// OD450 nm lookup, key: hAb003LH3L1b (antibody, human IgG1, V domains shown) VH: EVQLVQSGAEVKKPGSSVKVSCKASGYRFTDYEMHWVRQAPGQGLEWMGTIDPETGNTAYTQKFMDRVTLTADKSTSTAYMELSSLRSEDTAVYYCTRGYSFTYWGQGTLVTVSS VL: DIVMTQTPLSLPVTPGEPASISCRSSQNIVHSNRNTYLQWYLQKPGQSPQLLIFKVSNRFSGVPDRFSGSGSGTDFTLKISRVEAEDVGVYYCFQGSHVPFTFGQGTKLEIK 1.17
